# TARGET_DESC: antiserum C2
# ASSAY_PROTOCOL: competition ELISA: peptide added to C2 on plate-bound hTNFα
MEASURED_METRIC: inhibition rate (%)
// return numeric value only (unit: %, not printed)

Please give the measured inhibition rate (%) for this binder: GDRLSAEINRPDYLD [hTNFα peptide H(129-143)]
12

Which inhibition rate (%) value is on record for ANGVELRDNQLVVPS [hTNFα peptide H(38-52)] ?
19

Fill in: inhibition rate (%) of LSAIKSPCQRETPEG [hTNFα peptide H(94-108)] is ___
6

Which inhibition rate (%) value belongs to LQWLNRRANALLANG [hTNFα peptide H(26-40)] ?
82

Fill in: inhibition rate (%) of QVLFKGQGCPSTHVL [hTNFα peptide H(61-75)] is ___
10

GET /values?readout=inhibition rate (%)&item= DKPVAHVVANPQAEG [hTNFα peptide H(10-24)]
8

// inhibition rate (%) lookup, key: ISRIAVSYQTKVNLL [hTNFα peptide H(80-94)]
12
